Test system: mouse plasma stability, percent remaining
Test: second set, compound stability in murine plasma, biochemical ADME (AID 624419)
Condition Description: at 1 µM
Measurement Name: plasma stability (%)

Compound: N#C/C(=C\c1ccc([N+](=O)[O-])o1)c1nc2ccccc2[nH]1
plasma stability (%): 9.6
--
Compound: O=S(=O)(NC1CCCCC1N1CCOCC1)c1ccc(Cl)cc1 (stereo unspecified)
plasma stability (%): 100
--
Compound: CCCn1ncc(CN2CCCC(C(=O)c3cccc(OC(C)C)c3)C2)c1C (stereo unspecified)
plasma stability (%): 96.7
--
Compound: C=CCn1c(SCC(=O)c2ccc(O)c(O)c2)nnc1-c1ccccc1OC
plasma stability (%): 73.5
--
Compound: Cc1cccc(-n2cnc3cc(C(=O)N4CCCCC4)ccc32)c1
plasma stability (%): 87.1

[1] CCOC(=O)C(C)Oc1cccc2c(=O)n(CC(=O)Nc3ccc4c(c3)OCCO4)ccc12 (stereo unspecified)
[2] COc1ccc(S(=O)(=O)N2CCN(S(=O)(=O)c3ccc4c(c3)OCCO4)CC2)cc1
[Q] Lab notebook, comparison: 1 versus 2 , higher plasma stability goes to which? API: response body contains the label of the selected item.
[A] 2
(2: 100%, 1: 0.19%)
